system: HCV replicon cell line 2-3+ (full-length HCV Genotype 1b RNA genome); assay: HCV replicon system: viral RNA replication and protein synthesis; type: cell-based, Hepatitis C virus; details: 2 μM for 3 h; viral RNA by real-time PCR after 48 or 72 h

{"compound": "COc1ccc([C@@]23Oc4cc(OC)cc(OC)c4[C@]2(O)c2nc(-c4cccc(OC)c4)[nH]c(=O)c2[C@H]3c2ccccc2)cc1 [(+)-12s]", "HCV RNA replication": "did not inhibit"}
{"compound": "COc1ccc([C@@]23Oc4cc(OC)cc(OC)c4[C@]2(O)c2nc(-c4ccc(C)cc4)[nH]c(=O)c2[C@H]3c2ccccc2)cc1 [(+)-12l]", "HCV RNA replication": "did not inhibit"}

---

test system: cap-dependent Firefly luciferase (FLuc) translation; test: In vitro translation of bicistronic FF/HCV/Ren mRNA in Krebs-2 extracts, cap-dependent; assay type: biochemical; conditions: 1 μM, relative to DMSO
observable: translation inhibition of firefly luciferase (cap-dependent)

{"compound": "COc1ccc([C@@]23Oc4cc(OC)cc(OC)c4[C@]2(O)c2nc(-c4ccc(C)cc4)[nH]c(=O)c2[C@H]3c2ccccc2)cc1 (racemic) [12l]", "result": "minimal"}
{"compound": "COc1ccc([C@@]23Oc4cc(OC)cc(OC)c4[C@]2(O)c2nc(-c4cccc(OC)c4)[nH]c(=O)c2[C@H]3c2ccccc2)cc1 (racemic) [12s]", "result": "minimal"}
{"compound": "COc1ccc([C@@]23Oc4cc(OC)cc(OC)c4[C@]2(O)c2nc4n(c(=O)c2[C@H]3c2ccccc2)CCC4)cc1 [compound 6, Aglaroxin C, reference compound]", "result": "minimal"}
